- Target or system: RSV F on RSV subtype A virus (RSV-A2) (Respiratory Syncytial Virus, subtype A, …, UniProt P03420 26-574)
- Protocol: cell-based or functional assay
Quantity: Neutralization - RSV A2 IC50 (pM)
Record the value in pM, omitting the unit from your answer.

Consider the worked cases shown below.
| Binder | Neutralization - RSV A2 IC50 (pM) |
| --- | --- |
| ADI-14405 (antibody, V domains shown, also called Ab 71; Antibody Number 71) VH: QVQLVQSGTEVKKPGASVKVSCKASGYTFTNYDISWVRQAPGQGLEWMGWISGSTGNTIYAQNLQGRLTMTTDTSTSTAYMELRSLRSDDTAIYYCARDNVGYASGNYFDYWGQGTLVTVSS VL: SYVLTQPPSVSVAPGKTARIPCGGNNIGSKSVHWYQQRPGQAPVLVIYYDSVRPSGIPERFSGSNSGNTATLTISTVEAGDEADFYCQVWDSSRDHEVFGGGTKLTVL | 58.3 |
| ADI-36670 (antibody, V domains shown) VH: QVQLVQSGAEVKKPGSSVKVSCKASGGTFSTYTINWVRQAPGQGLEWMGRITPSLGVPLSAQKFQGRITISADKSTTTAYMELSSLGSEDTAVYYCASLNYYDTTDYYLGYSDSWGQGTLVTVSS VL: DIVLTQTPATLSVSPGERATLSCRASHSVSNNLAWYQQKPGQAPRLLIYSASTRATGIPARFSGRGSGTEFTLTISSLQPEDFAVYYCQQYNNWPPEYTFGQGTKVDIK | 141 |

Here's the next entry for you.
Lab book: Neutralization - RSV A2 IC50 (pM) of ADI-41344 (antibody, V domains shown) VH: EVQLVESGGGLVKPGGSLRLSCAASGSSFSSYYMNWVRQAPGKGLEWVSSISSSSTYIDYADSVKGRFTISRDNAKNSLFLQMNSLRAEDTAVYYCARVSSPMIRGYYLDYWGQGTLVTVSS VL: QPVLTQPPSVSGAPGQRVTISCTGSSSNIGAGYDVHWYQQLPGTAPKLVIHGNSNRPSGVPDRFSGSKSGTSASLAITGLQGEDEADYYCQSYDSSLSGSVFGGGTKLTVL noted as 229

All figures here come from patent US20260258115A1.
